experiment: Ocular tissue concentrations (aqueous humor, vitreous humor, iris, retina, choroid, cornea) after topical ocular, subcutaneous and intravitreal administration; format: in vivo, New Zealand White rabbits; details: New Zealand White, rabbit, iris, other: intravitreal, 2.5 mg/eye, Iris, 72 hr, OD; sodium salt, intravitreal 2.5 mg/eye, Group 4; read-out: Iris Conc. (ng/g) OD
Measured Metric: concentration at 72 h (ng/g)
# number only, unit ng/g dropped from output

Enquiry: # query: concentration at 72 h of entry COC(=O)N[C@@H](Cc1ccccc1)C(=O)N[C@@H](Cc1ccc(NS(=O)(=O)O)cc1)c1csc(-c2cccs2)n1
Return: 1860

====

assay: Ocular tissue concentrations (aqueous humor, vitreous humor, iris, retina, choroid, cornea) after topical ocular, subcutaneous and intravitreal administration; format: in vivo, New Zealand White rabbits; details: New Zealand White, rabbit, choroid homogenate, other: intravitreal, 2.5 mg/eye, Choroid homogenate, 48 hr, OD; sodium salt, intravitreal 2.5 mg/eye, Group 4; read-out: Choroid Conc. (ng/mL) OD
Measured Metric: concentration at 48 hr (ng/mL)
State just the number; it will be interpreted in ng/mL.

Enquiry: # lookup: concentration at 48 hr of COC(=O)N[C@@H](Cc1ccccc1)C(=O)N[C@@H](Cc1ccc(NS(=O)(=O)O)cc1)c1csc(-c2cccs2)n1 [Compound 1]
Return: 3480

====

test: Ocular tissue concentrations (aqueous humor, vitreous humor, iris, retina, choroid, cornea) after topical ocular, subcutaneous and intravitreal administration; type: in vivo, New Zealand White rabbits; settings: New Zealand White, rabbit, cornea, subcutaneous, 5 mg/kg/dose, TABLE 16: Cornea, 0.5 hr, OS; free acid, subcutaneous 5 mg/kg/dose, Group 3; read-out: Cornea Conc. (ng/g) OS
Measured Metric: concentration at 0.5 h
Answers without a unit are incomplete; give the number and then its unit.

Enquiry: Give the measured concentration at 0.5 h of COC(=O)N[C@@H](Cc1ccccc1)C(=O)N[C@@H](Cc1ccc(NS(=O)(=O)O)cc1)c1csc(-c2cccs2)n1 .
Return: 9.87 ng/g

====

Assay: Plasma concentrations and pharmacokinetic parameters after topical ocular, subcutaneous and intravitreal administration
Type: in vivo, New Zealand White rabbits
Settings: New Zealand White, rabbit, plasma, other: intravitreal, 2.5 mg/eye, intravitreal 2.5 mg/eye (~1.55 mg/kg), solution; 6.0 hr; read-out: plasma Conc., individual rabbit
Procedure: To measure the concentration of Compound 1 in plasma and ocular tissues following topical ocular, subcutaneous, and intravitreal administration, New Zealand White rabbits were administered Compound 1, and plasma and ocular samples were collected at pre-determined time points. […] Each blood sample was collected on Day 3 post dose at pre-determined time points from the rabbits via an ear vessel and placed into chilled polypropylene tubes containing sodium heparin as an anticoagulant. […]
Where a name gives a salt, the structure may show the parent alone.
Measured Metric: concentration at 6 hr (ng/mL)
Number only, in ng/mL; omit the unit.

Enquiry: Can you look up the measured concentration at 6 hr of COC(=O)N[C@@H](Cc1ccccc1)C(=O)N[C@@H](Cc1ccc(NS(=O)(=O)O)cc1)c1csc(-c2cccs2)n1 [Compound 1 sodium salt] for me?
Return: 44.3

====

assay: Ocular tissue concentrations (aqueous humor, vitreous humor, iris, retina, choroid, cornea) after topical ocular, subcutaneous and intravitreal administration; assay type: in vivo, New Zealand White rabbits; settings: New Zealand White, rabbit, iris homogenate, other: intravitreal, 2.5 mg/eye, Iris homogenate, 72 hr, left eye, intravitreal 2.5 mg/eye (group 5), individual animals; read-out: Conc. (ng/mL) OS
Measured Metric: concentration at 72 h (ng/mL)
Your answer should be a plain number; it is taken to be in ng/mL.

Enquiry: For the molecule shown here, COC(=O)N[C@@H](Cc1ccccc1)C(=O)N[C@@H](Cc1ccc(NS(=O)(=O)O)cc1)c1csc(-c2cccs2)n1 , give the reported concentration at 72 h.
Return: 1800

Values from patent US11666558B2
